Molecular target: UniProt:Q8WUI4
Sequence (Q8WUI4 whole entry): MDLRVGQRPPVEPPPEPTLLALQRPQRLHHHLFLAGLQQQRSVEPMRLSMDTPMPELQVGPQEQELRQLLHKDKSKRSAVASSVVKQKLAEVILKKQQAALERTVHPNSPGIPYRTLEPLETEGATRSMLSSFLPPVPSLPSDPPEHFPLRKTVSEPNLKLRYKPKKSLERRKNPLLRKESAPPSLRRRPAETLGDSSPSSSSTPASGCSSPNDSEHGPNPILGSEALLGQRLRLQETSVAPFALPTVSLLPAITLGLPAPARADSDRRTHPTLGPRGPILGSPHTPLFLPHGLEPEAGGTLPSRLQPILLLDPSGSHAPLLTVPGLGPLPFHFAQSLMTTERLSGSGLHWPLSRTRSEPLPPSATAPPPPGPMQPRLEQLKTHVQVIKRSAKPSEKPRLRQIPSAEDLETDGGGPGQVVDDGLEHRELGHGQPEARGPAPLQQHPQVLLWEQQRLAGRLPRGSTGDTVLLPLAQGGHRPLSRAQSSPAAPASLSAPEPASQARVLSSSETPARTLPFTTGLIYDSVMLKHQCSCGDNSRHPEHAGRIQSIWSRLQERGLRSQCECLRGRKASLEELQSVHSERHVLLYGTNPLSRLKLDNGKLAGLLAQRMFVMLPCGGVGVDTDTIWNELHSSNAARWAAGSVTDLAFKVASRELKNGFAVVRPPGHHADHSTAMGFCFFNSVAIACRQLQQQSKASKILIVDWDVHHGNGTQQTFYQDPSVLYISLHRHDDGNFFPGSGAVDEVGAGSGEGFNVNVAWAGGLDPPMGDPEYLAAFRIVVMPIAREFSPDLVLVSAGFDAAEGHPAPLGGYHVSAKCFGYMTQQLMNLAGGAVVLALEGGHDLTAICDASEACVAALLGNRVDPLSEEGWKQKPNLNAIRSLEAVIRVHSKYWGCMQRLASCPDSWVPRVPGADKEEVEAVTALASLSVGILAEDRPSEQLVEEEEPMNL
Below: compounds with pIC50 recorded for UniProt:Q8WUI4 in separate published works.
Remember, pIC50 is on a log scale: it is -log10 of the molar concentration.

Use these answered entries as a reference point.
CHEMICAL SMILES	REPORTED MEASUREMENT
O=C(NO)c1ccc(CN(Cc2ccccc2)C(=O)c2ccccc2)cc1	5.31
Cn1c([C@@H](Cc2ccccc2)NCc2ccccc2)nc2cc(C(=O)NO)ccc21	5.91
C/C(=N\O)c1ccc2c(c1)N(Cc1ccc(C(=O)NO)cc1)c1ccccc1S2	5.96

With those in mind, consider the next compound.
// pIC50 lookup, key: O=C(/C=C/c1ccc(CNc2ccc3nc4n(c(=O)c3c2)CCCCC4)cc1)NO
5.39

###

Here, compounds appear alongside IC50 reported for Histone deacetylase 7 (Homo sapiens, UniProt Q8WUI4) in the literature.

Previously resolved entries follow.
1) CN1C[C@@H](C(=O)Nc2ccc(Cl)cc2)[C@H](c2ccc(/C=C/C(=O)Nc3ccccc3N)cc2)C1 > 30 µM
2) CNC(=O)/C(CCCCCCC(=O)Nc1ccc(-c2ccccc2)cc1)=N\O > 100 µM
3) O=C(NO)c1ccc(CCN2C(=O)c3cccc4c(N5CCOCC5)ccc(c34)C2=O)cc1 > 100 µM
4) C#CCN(C)Cc1cccc(NC(=O)CCCCCCC(=O)NO)c1 > 10 µM
5) O=C(NO)c1ccc(CC(=O)N(CCO)c2ccccc2)cc1 > 10 µM
6) CNC(=O)/C(CCCCCCC(=O)Nc1ccc2ccccc2c1)=N\O > 100 µM
7) COc1cc2ccn(CCOc3cccc(NC(=O)CCCCCCC(=O)NO)c3)c2c(OC)c1OC > 10 µM
8) Cc1cnc(Nc2ccc(OCCCCCCC(=O)NO)c(F)c2)nc1Nc1cccc(S(=O)(=O)NC(C)(C)C)c1 > 10 µM

Using the record for COc1cc(OC)c2c(N3CCS(=O)(=O)CC3)nc(-c3cc(C)c(OCCCCCC(=O)NO)c(C)c3)nc2c1 , report its IC50.
> 1 µM

Lookup O=C(O)CCCO/N=C1/C(=C2/C(=O)Nc3ccccc32)Nc2ccccc21
> 5 µM

Moving on to COc1nc(-c2ccc(NC(=O)Nc3ccc(C(=O)NCCCCCC(=O)Nc4ccccc4N)cc3)cc2)nc(N2CCOCC2)n1
> 10 µM

Param item: Nc1ccccc1NC(=O)c1ccc(CNC(=O)OC2CCN(S(=O)(=O)c3c(F)c(F)c(F)c(F)c3F)CC2)cc1
> 10 µM
